Test system: N. gonorrhoeae strain NCCP11945
protocol: Log reduction assay in GC broth, 2-min exposure
Assay type: cell-based, Neisseria gonorrhoeae
measurement.name: Log reduction at 1 mM: at least a 4-log reduction in viable bacteria (Yes/No)

>>> endpoint_value("CCCCCCCCCCCCCC(=O)[O-].[Na+] [Sodium myristate]")
"No"
>>> endpoint_value("CCCCC/C=C\\C/C=C\\CCCCCCCC(=O)O")
"No"
>>> endpoint_value("CCCCCCCCCCCC(=O)O")
"Yes"
>>> endpoint_value("CCCCCCCC/C=C/CCCCCCCC(=O)O")
"No"
>>> endpoint_value("CCCCCCCC(=O)OCC(O)CO (racemic)")
"No"
>>> endpoint_value("CCCCCCCCCCCCC(=O)O")
"Yes"
>>> endpoint_value("CCCCCC[C@@H](O)C/C=C\\CCCCCCCC(=O)O")
"No"
>>> endpoint_value("CCCCCCCC/C=C\\CCCCCCCCCCCC(=O)O")
"No"
>>> endpoint_value("CCCCCCCCCCCCCCC(=O)O")
"No"
>>> endpoint_value("CCCCCCCCCCCC(=O)[O-].[Na+] [Sodium dodecanoate]")
"Yes"
>>> endpoint_value("CCCCCCCCCCCCCC(=O)O")
"No"
>>> endpoint_value("CCCC/C=C\\CCCCCCCC(=O)O")
"Yes"
>>> endpoint_value("CC/C=C\\C/C=C\\C/C=C\\CCCCCCCC(=O)O")
"Yes"
>>> endpoint_value("CCCCCCCCCCCC(=O)OCC(O)CO (stereo not shown)")
"No"
>>> endpoint_value("CCCCCCCCCCCCCC(=O)OCC(O)CO (stereo not shown)")
"No"
>>> endpoint_value("CCCCCC/C=C\\CCCCCCCC(=O)O")
"Yes"
>>> endpoint_value("CCCCCCCCCC(=O)OCC(O)CO (stereo not shown)")
"Yes"
>>> endpoint_value("CCCCCCCC/C=C\\CCCCCCCC(=O)O")
"No"
>>> endpoint_value("CCCCCCCCCCC(=O)O")
"No"
